- MEASURED TARGET: T1, HCV Core1-169 (HCV-1, UniProt P26664 1-169)
- T1 construct: also called Solid Phase HCV Core
- T1 sequence: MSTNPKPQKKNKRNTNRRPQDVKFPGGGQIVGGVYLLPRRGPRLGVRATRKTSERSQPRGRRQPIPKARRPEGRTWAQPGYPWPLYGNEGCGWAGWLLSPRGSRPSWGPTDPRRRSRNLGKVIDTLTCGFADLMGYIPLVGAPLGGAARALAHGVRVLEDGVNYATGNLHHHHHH
- ASSAY COMMENT: sandwich EIA, capture C11-7
Rule: condition met for OD492 not less than 0.9 OD, condition not met for anything less.

# BINDER, ANSWER LABEL
measured = [
    ("HCV 208A-692 (antibody, V domains shown) VH: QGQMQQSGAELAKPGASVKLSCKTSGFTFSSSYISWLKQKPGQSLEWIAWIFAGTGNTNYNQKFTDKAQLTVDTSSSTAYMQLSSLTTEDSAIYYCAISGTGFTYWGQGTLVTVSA VL: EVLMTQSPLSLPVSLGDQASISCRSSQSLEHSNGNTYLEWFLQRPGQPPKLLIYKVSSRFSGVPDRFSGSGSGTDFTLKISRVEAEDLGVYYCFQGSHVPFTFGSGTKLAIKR", "condition met"),
    ("HCV 208A-557 (antibody, V domains shown) VH: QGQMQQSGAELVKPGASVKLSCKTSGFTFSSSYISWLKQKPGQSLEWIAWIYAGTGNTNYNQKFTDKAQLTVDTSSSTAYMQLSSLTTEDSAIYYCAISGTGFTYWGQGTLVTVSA VL: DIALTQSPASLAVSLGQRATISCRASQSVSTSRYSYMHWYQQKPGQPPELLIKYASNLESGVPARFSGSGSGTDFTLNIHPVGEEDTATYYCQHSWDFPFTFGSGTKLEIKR", "condition not met"),
    ("HCV 208A-741 (antibody, V domains shown) VH: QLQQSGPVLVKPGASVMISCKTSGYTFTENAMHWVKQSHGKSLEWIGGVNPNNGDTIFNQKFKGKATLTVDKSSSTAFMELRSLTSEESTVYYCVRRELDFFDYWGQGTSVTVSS VL: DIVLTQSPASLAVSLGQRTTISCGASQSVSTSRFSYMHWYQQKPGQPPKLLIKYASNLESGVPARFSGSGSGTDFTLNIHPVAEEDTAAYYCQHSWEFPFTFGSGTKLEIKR", "condition met"),
]

Let us examine a further case.
Reported OD492 reaches at least 0.9 OD for HCV 208B-1096 (antibody, V domains shown) VH: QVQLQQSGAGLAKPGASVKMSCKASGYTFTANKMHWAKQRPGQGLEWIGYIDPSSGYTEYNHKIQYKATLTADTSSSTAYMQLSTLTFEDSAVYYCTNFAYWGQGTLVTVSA VL: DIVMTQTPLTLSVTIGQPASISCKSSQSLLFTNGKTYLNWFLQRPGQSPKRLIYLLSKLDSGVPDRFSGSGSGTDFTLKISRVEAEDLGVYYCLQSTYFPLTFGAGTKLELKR ? condition met

Entry source: patent US9371374
